target: PI3K-γ (p110γ) (Homo sapiens (Human), UniProt P48736); assay: Fluorescent determination of PI3K enzyme activity (Transcreener KINASE Assay), PI3K-γ; type: biochemical; details: inhibition rate at 1 μM
Sequence (P48736 whole entry, species assumed): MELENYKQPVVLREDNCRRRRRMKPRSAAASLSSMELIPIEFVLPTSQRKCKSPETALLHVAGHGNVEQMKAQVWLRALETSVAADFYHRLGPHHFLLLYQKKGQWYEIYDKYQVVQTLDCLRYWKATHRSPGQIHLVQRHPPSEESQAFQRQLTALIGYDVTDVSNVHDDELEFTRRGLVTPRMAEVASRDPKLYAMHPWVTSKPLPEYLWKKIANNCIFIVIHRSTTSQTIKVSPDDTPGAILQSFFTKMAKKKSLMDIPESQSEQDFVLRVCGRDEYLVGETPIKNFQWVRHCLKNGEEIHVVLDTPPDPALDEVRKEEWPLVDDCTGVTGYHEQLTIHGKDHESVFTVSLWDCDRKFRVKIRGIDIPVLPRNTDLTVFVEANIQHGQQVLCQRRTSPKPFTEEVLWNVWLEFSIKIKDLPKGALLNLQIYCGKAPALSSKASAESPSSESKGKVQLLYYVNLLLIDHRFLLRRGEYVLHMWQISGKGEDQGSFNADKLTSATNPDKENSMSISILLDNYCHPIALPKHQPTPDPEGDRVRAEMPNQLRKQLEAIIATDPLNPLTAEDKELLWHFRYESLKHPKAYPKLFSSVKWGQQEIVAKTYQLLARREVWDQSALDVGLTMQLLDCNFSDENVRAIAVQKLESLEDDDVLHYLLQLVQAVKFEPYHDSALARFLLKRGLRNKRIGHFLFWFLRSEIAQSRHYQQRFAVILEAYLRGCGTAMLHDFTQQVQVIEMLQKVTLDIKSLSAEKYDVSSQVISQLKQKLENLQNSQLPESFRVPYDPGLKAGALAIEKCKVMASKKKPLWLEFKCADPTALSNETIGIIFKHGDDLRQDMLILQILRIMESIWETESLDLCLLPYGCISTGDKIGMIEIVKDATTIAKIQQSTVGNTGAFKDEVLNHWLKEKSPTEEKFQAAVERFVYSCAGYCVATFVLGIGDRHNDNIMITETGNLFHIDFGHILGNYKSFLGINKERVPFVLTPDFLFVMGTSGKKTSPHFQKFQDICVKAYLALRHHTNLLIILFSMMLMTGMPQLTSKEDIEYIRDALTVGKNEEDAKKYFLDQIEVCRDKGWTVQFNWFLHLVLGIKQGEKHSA
endpointLabel: PI3K-γ IH% (%)

Solved entries (count: 2):
smilesEntry | endpointLabel | observedMeasurement
C[C@@H](Nc1ncnc(N)c1C#N)c1cc2ncc(Cl)n2nc1-c1ccccc1 | PI3K-γ IH% | 6.9
C[C@@H](c1cc2ncc(Cl)n2nc1-c1ccccc1)n1ccc2c(N)ncnc21 | PI3K-γ IH% | 24.9

1 = CC[C@@H](Nc1ncnc(N)c1C#N)c1cc2ncc(Cl)n2nc1-c1cccc(F)c1
2 = C[C@H](Nc1ncnc(N)c1C(=O)N(C)C)c1cc2ncc(Cl)n2nc1-c1ccccc1
Q: Between 1 and 2 , which one has the lower reported PI3K-γ IH% value? Bench note: the answer is the label of the chosen record.
A: 2
(2: 1.0%, 1: 27.2%)

----------
biological target: PI3K-γ (p110γ) (Homo sapiens (Human), UniProt P48736); assay: Fluorescent determination of PI3K enzyme activity (Transcreener KINASE Assay), PI3K-γ; format: biochemical; conditions: inhibition rate at 1 μM;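 further: p110γ enzyme reaction for 80 min at room temperature, ADP formed measured by far-red competitive fluorescence polarization immunoassay, inhibition relative to wells with 2% DMSO only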
endpointLabel: PI3K-γ IH% (%)

Worked cases, answers included:
compound | PI3K-γ IH% (%)
CCC(Nc1ncnc(N)c1C#N)c1cc2ncc(Cl)n2nc1-c1ccccn1 (centres unmarked) [Compound 29] | 35
C[C@H](Nc1ncnc(N)c1C#N)c1cc2ncc(Cl)n2nc1-c1cccc(C(C)(C)O)c1 (single isomer, unassigned) [Compound 79] | 56.2
C[C@@H](Nc1ncnc(N)c1C#N)c1cc2ncc(Cl)n2nc1-c1ccc2scnc2c1 [Compound 75] | 31.7
C[C@H](Nc1nc(N)ncc1C#N)c1cc2ncc(Cl)n2nc1-c1ccccc1 [Compound 34] | −19.3
CCC(Nc1ncnc(N)c1C#N)c1cc2ncc(Cl)n2nc1-c1ccccn1 (centres unmarked) [Compound 28] | 18.8

1 = C[C@H](Nc1ncnc2[nH]ccc12)c1cc2ncc(Cl)n2nc1-c1ccccc1 [Compound 17]
2 = C[C@H](Nc1ncnc(N)c1C#N)c1cc2ncc(Cl)n2nc1-c1ccccn1 [Compound 8]
3 = C[C@H](Nc1ncnc(N)c1C(N)=O)c1cc2ncc(Cl)n2nc1-c1ccccc1 [Compound 53]
4 = C[C@H](Nc1ncnc(N)c1C(=O)O)c1cc2ncc(Cl)n2nc1-c1ccccc1 [Compound 52]
Q: Put the items in order so that reported PI3K-γ IH% rises from first to last. Could you list the labels in the order requested?
A: 4, 2, 3, 1
(4: −26.1%, 2: −2.3%, 3: 34.3%, 1: 61.2%)

P = CCC(Nc1ncnc(N)c1C#N)c1cc2ncc(Cl)n2nc1-c1cccc(F)c1 (centres unmarked) [Compound 24]
Q = COc1ccc(-c2c(N)ncnc2N[C@@H](C)c2cc3ncc(Cl)n3nc2-c2ccccc2)cn1 [Compound 39]
R = C[C@@H](c1cc2ncc(Cl)n2nc1-c1ccccc1)N(C)c1ncnc(N)c1C#N [Compound 42]
S = CNc1ncnc(N[C@@H](C)c2cc3ncc(Cl)n3nc2-c2ccccc2)c1C#N [Compound 33]
Q: Descending sort on PI3K-γ IH% required. Rank them, then answer with their labels in that order.
A: P, Q, R, S
(P: 44.5%, Q: 28.1%, R: 18.2%, S: −6.9%)

A = C[C@H](Nc1nc[n+]([O-])c(N)c1C#N)c1cc2ncc(Cl)n2nc1-c1ccccc1 [Compound 51]
B = C[C@@H](Nc1ncnc(N)c1C#N)c1cc2ncc(Cl)n2nc1-c1ccccn1 [Compound 7]
Q: Could you determine which record has the numerically smaller PI3K-γ IH%? Candidates: A and B Indicate which entry you chose by stating its label.
A: A

a = C[C@H](Nc1ncnc(N)c1C#N)c1cc2ncc(Cl)n2nc1-c1ccncc1 [Compound 73]
b = C[C@H](Nc1ncnc(N)c1C#N)c1cc2ncc(Cl)n2nc1-c1ccc2cccnc2c1 [Compound 61]
Q: Would you mind telling me which has the lower recorded PI3K-γ IH% between a and b ? Give the label of your selection.
A: b
